Where do the numbers come from? From paper PMC10244618.

B1: NF2 (merlin) isoform 7, human, full length (507 aa, lacks exons 2-3 = isoform-1 residues 39-121; exon-16 C-terminus), P35240-4 (parent)
chain: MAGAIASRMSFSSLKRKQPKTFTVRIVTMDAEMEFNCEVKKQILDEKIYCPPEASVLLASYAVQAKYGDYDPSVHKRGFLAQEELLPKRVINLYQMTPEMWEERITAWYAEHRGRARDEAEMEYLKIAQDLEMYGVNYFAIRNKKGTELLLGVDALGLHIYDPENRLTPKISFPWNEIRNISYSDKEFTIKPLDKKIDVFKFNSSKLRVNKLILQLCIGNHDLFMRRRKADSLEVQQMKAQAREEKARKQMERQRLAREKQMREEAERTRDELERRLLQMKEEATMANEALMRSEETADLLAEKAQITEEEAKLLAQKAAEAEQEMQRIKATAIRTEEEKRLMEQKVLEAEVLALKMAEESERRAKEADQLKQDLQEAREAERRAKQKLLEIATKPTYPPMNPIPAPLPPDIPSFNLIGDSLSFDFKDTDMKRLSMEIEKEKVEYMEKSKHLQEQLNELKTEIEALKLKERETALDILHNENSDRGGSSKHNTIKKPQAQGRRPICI

variants of: B1; experiment: reverse yeast two-hybrid deep mutational scan (rY2H-seq): NF2 isoform 7 mutant library as bait mated with wild-type prey strains; selection on medium lacking adenine for non-interacting pairs; NextSeq paired-end sequencing; enrichment vs …; conditions: with NF2 C-terminal domain (wild type; homomeric NF2-NF2 interaction), P35240; yeast diploids after mating (RBait_S3 x RPrey_S3), 30 °C, selection for reporter genes on NB agar; human ABL2 co-expressed as the kinase-dead K35M mutant …; HIGHER = WEAKER BINDING (the opposite of display enrichments): higher = stronger loss of interaction: reverse Y2H selects yeast in which bait and prey do NOT interact (growth without adenine), so a …; hits-only table; partner unresolved; scale: rY2H score; numbering: uniprot, sequence starts at 1
enrichment overview
Simply state the number, no unit and no words.

These recorded examples may help you get a feel for the data.
{"change": "D299L", "quantity.kind": "enrichment", "assay.value": 3.22}
{"change": "L348A", "quantity.kind": "enrichment", "assay.value": 4.71}
{"change": "Q376L", "quantity.kind": "enrichment", "assay.value": 3.07}

Record Q376A . Reported enrichment: 5.78

Record T308K . Reported enrichment: 5.45

Record P405E . Reported enrichment: 1.76

Record K460E . Reported enrichment: 3.55

Record A358E . Reported enrichment: 2.37

Record M292S . Reported enrichment: 1.49
